# System: ACHN renal
# method-summary: NCI-60 one-dose screen, 48 h
# measurement-setup: 10 µM
The panel holds about 83,000 compounds, 20% with a hit somewhere; the sample as a whole holds those more often. Active and inactive are the calls of the source. Rule for the calls: active = growth percent below 10; inactive = the rest.
Hello, when you answer, please use one of the following outcomes: 1 for active, 0 for inactive

Consider the worked cases shown below.
Request: Would you mind telling me which call this test gave "COc1ccc(/C=C2/CN(C(=O)c3ccccc3F)C/C(=C\c3ccc(OC)cc3)C2=O)cc1" ?
Result: 0

Request: Would you mind telling me which call this test gave "Nc1nc(N=Nc2ccc(O)cc2)cc(=O)[nH]1" ?
Result: 0

Request: Would you mind telling me which call this test gave "CCN1Cc2c(/C=C/c3ccccc3)nc3ccc(OC)cc3c2N(c2cccc(Cl)c2)C1" ?
Result: 0

Request: Would you mind telling me which call this test gave "O=[N+]([O-])c1ccc(Oc2cccnc2)c([N+](=O)[O-])c1" ?
Result: 0

Request: Would you mind telling me which call this test gave "COc1ccc(-c2nn(-c3cccc(NC(=O)c4cc(C(F)(F)F)cc(C(F)(F)F)c4)c3)cc2-c2ccncc2)cc1Cl" ?
Result: 0

Request: Would you mind telling me which call this test gave Nc1c(C(=O)Nc2cccc(Br)c2)sc2nc3c(cc12)C(O)CCC3 (stereo unspecified) ?
Result: 0

Next:
Request: Would you mind telling me which call this test gave "N#CCCN1C/C(=C/c2ccccc2)C(=O)/C(=C/c2ccccc2)C1" ?
Result: 1

Request: Would you mind telling me which call this test gave "O=C(Nc1ccc(CN2CCc3nc4cc(O)c(O)cc4cc32)cc1)c1ccc(Cl)c(Cl)c1" ?
Result: 0

Request: Would you mind telling me which call this test gave "O=C(Nc1ccncc1)C(=O)c1cn(S(=O)(=O)c2cc(Cl)cc(Cl)c2)c2ccccc12" ?
Result: 0

Request: Would you mind telling me which call this test gave "Clc1ccc(Sc2nc(NC3CC3)nc(Sc3ccc(Cl)cc3)n2)cc1" ?
Result: 0

Request: Would you mind telling me which call this test gave "CN(CCc1ccccn1)c1ccccc1" ?
Result: 0

Request: Would you mind telling me which call this test gave "O=C(Nc1nc(-c2ccccc2Cl)cs1)c1cc(-c2ccc(Cl)cc2)nc2ccc(Cl)cc12" ?
Result: 0
